- Test system: Escherichia coli TOP10
- assay comment: shrunken log2 fold change of peptide-encoding DNA abundance (4.5 h post-induction vs induction); higher = less antimicrobial activity (less host growth inhibition)
- measurement parameters: time post-induction: 4.5 h; library: site-saturation at positions 5, 18, 19, 20
assay readout: shrunken log2 fold change
Give bare numbers.

Some solved entries appear below for comparison.
| polymer sequence | shrunken log2 fold change |
| --- | --- |
| RRIRHRPPRLPRPRPRPGCWPRP | 0.434 |
| RRIRFRPPRLPRPRPRPMYRPRP | -0.29 |
| RRIRDRPPRLPRPRPRPEKGPRP | 0.71 |
| RRIRIRPPRLPRPRPRPYDLPRP | -0.427 |
| RRIRRRPPRLPRPRPRPNHTPRP | -0.306 |
| RRIRCRPPRLPRPRPRPPIVPRP | -0.089 |

Hi team, please reply with shrunken log2 fold change for each item in this list.
1. RRIRLRPPRLPRPRPRPNWDPRP
2. RRIRSRPPRLPRPRPRPVCRPRP
3. RRIRIRPPRLPRPRPRPMMAPRP
4. RRIRWRPPRLPRPRPRPHQAPRP
5. RRIRDRPPRLPRPRPRPMTKPRP
6. RRIRGRPPRLPRPRPRPCWTPRP
7. RRIRMRPPRLPRPRPRPSFAPRP
8. RRIRIRPPRLPRPRPRPGEMPRP

1. 0.14
2. 0.199
3. 0.0709
4. 0.257
5. -0.0341
6. 0.28
7. 0.301
8. -0.00568

---

- System: Escherichia coli TOP10
- assay comment: shrunken log2 fold change of peptide-encoding DNA abundance (4.5 h post-induction vs induction); higher = less antimicrobial activity (less host growth inhibition)
- measurement parameters: time post-induction: 4.5 h; library: site-saturation at positions 5, 18, 19, 20
Binary classification by shrunken log2 fold change, with 0.2 as an inclusive lower bound for criterion met; all other cases are criterion not met.

Some solved entries appear below for comparison.
| polymer sequence | answer label |
| --- | --- |
| RRIRSRPPRLPRPRPRPRSSPRP | criterion not met |
| RRIRERPPRLPRPRPRPLSKPRP | criterion not met |
| RRIRRRPPRLPRPRPRPARCPRP | criterion met |
| RRIRYRPPRLPRPRPRPMTWPRP | criterion not met |
| RRIRMRPPRLPRPRPRPVLEPRP | criterion met |
| RRIRKRPPRLPRPRPRPAYEPRP | criterion not met |

Confirm if shrunken log2 fold change reported for the sequence "RRIRWRPPRLPRPRPRPREIPRP" is 0.2 or above.
criterion met

Is reported shrunken log2 fold change greater than or equal to 0.2 here: "RRIRGRPPRLPRPRPRPCFNPRP"
criterion met

---

I'd be grateful if you could share measured shrunken log2 fold change for these entries.
- Test system: Escherichia coli TOP10;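 further: peptides expressed intracellularly from a pBAD plasmid library in pooled LB shake-flask culture, induced with 0.3% L-arabinose, DNA abundance read by NGS, three biological replicates, DESeq2 with apeglm shrinkage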
- assay comment: shrunken log2 fold change of peptide-encoding DNA abundance (4.5 h post-induction vs induction); higher = less antimicrobial activity (less host growth inhibition)
- measurement parameters: time post-induction: 4.5 h; library: site-saturation at positions 5, 18, 19, 20
Give bare numbers.

Worked cases, shrunken log2 fold change given:
| polymer sequence | shrunken log2 fold change |
| --- | --- |
| RRIRPRPPRLPRPRPRPWMGPRP | -0.114 |
| RRIRWRPPRLPRPRPRPTPLPRP | 0.557 |

List shrunken log2 fold change for every entry below, keeping the order given.
1. RRIRIRPPRLPRPRPRPFNSPRP
2. RRIRSRPPRLPRPRPRPSWSPRP

-0.384
-0.0102
